# tested.on: DNA topoisomerase 2-alpha (Homo sapiens) (UniProt P11388)
# Sequence (P11388 whole entry): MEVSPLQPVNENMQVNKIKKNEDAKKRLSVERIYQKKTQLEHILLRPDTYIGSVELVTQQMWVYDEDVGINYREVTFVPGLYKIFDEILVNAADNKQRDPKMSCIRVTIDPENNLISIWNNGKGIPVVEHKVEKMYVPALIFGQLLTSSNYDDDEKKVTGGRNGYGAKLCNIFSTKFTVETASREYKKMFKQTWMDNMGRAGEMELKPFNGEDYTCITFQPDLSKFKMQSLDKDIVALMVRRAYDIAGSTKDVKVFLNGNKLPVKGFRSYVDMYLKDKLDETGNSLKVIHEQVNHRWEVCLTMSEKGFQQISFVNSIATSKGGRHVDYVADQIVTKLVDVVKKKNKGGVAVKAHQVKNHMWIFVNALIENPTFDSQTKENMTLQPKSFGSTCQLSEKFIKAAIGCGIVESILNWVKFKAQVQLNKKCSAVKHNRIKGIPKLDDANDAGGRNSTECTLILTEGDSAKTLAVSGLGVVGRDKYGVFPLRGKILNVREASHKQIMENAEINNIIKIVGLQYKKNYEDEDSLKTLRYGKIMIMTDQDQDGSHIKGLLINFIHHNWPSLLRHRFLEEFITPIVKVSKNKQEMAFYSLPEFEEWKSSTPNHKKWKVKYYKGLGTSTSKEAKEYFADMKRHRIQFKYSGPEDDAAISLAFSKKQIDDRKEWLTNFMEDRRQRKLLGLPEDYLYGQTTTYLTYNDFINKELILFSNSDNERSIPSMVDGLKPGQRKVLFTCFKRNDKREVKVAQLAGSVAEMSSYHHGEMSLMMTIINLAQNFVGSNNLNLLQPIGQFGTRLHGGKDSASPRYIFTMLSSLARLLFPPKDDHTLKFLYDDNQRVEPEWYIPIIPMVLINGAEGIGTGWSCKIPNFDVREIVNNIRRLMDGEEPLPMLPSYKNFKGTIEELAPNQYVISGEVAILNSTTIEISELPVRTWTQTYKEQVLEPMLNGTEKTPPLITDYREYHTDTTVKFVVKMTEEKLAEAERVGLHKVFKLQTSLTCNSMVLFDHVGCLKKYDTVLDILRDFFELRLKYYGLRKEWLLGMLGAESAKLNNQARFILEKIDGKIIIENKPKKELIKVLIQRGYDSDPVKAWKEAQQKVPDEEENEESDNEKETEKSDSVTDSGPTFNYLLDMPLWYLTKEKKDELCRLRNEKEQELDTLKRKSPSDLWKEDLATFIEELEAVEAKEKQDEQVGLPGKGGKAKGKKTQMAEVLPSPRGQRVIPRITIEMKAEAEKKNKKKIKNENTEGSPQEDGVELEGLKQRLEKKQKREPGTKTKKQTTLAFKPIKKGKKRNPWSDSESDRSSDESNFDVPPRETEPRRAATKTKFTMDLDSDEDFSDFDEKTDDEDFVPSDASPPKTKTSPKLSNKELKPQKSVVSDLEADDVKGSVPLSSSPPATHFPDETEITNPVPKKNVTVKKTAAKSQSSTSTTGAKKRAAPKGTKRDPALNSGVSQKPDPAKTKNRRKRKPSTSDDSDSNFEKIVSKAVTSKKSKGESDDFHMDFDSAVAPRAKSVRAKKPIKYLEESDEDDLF
# procedure.details: Inhibition of human DNA topoisomerase-2a-mediated relaxation of supercoiled DNA pBR322 at 100 uM after 4 hrs using ethidium bromide staining by agarose gel electrophoresis analysis
value.kind: inhibition (%)
Give your result in % as a bare value.

{"smiles.string": "CCN1CCN(c2nc(-c3cccs3)cc3ccc(C)cc23)CC1", "inhibition / %": 0}

Field request: inhibition | item: Cc1ccc2cc(-c3cccs3)nc(N3CCCN(C)CC3)c2c1
8

Query: inhibition; subject: Cc1ccc2c(N3CCN(C)CC3)nc(-c3cccs3)cc2c1
0

---

# tested.on: DNA topoisomerase 1 (Homo sapiens)
# procedure.details: Inhibition of recombinant human DNA topoisomerase-1-mediated relaxation of supercoiled DNA pBR322 at 100 uM after 7 hrs using ethidium bromide staining by agarose gel electrophoresis analysis
value.kind: inhibition (%)
Your answer should be a plain number; it is taken to be in %.

Take a look at these entries with their results.
{"smiles.string": "Cc1cccc2c(N=[N+]=[N-])nc(-c3cccs3)cc12", "inhibition / %": 2.1}
{"smiles.string": "Cc1ccc2c(N3CCOCC3)nc(-c3cccs3)cc2c1", "inhibition / %": 0}
{"smiles.string": "c1csc(-c2cc3ccccc3c(N3CCOCC3)n2)c1", "inhibition / %": 0}

Fill in the recorded inhibition for this molecule, with DNA topoisomerase 1 (Homo sapiens) as test system: CCN1CCN(c2nc(-c3cccs3)cc3cc(C)ccc23)CC1
0

# get_value(readout= inhibition, system= DNA topoisomerase 1 (Homo sapiens)) for Nc1nc(-c2cccs2)cc2ccccc12
0

# value lookup — system DNA topoisomerase 1 (Homo sapiens), readout inhibition, item Cc1ccc2c(NCc3ccccc3)nc(-c3cccs3)cc2c1
0

Can you look up inhibition on DNA topoisomerase 1 (Homo sapiens) for Cc1ccc2cc(-c3cccs3)nc(N3CCNCC3)c2c1 ?
10.7

Reported inhibition for DNA topoisomerase 1 (Homo sapiens), given c1csc(-c2cc3ccccc3c(N3CCCCC3)n2)c1 ?
0

Identify the measured inhibition of Cc1ccc2cc(-c3cccs3)nc(N3CCCN(C)CC3)c2c1 for DNA topoisomerase 1 (Homo sapiens).
18.3

---

# Tested on: HeLa
# procedure.details: Cell cycle arrest in human HeLa cells assessed as accumulation at sub-G0/G1 phase at 10 uM after 24 hrs using ethidium bromide staining by flow cytometry analysis relative to control
# Type: functional
# measurement.setup: in the assay text read “propidium iodide staining” for “ethidium bromide staining”
value.kind: Activity (%)
// return numeric value only (unit: %, not printed)

{"smiles.string": "Cc1ccc2c(N3CCNCC3)nc(-c3cccs3)cc2c1", "tested.on": "HeLa", "Activity [%]": 92.31}

Suppose we examine the compound CCN1CCN(c2nc(-c3cccs3)cc3ccccc23)CC1.Cl ; what Activity value has been reported?
2.59

Quick check: Activity of CCN1CCN(c2nc(-c3cccs3)cc3ccccc23)CC1 ?
2.08

I am curious: what Activity value has been reported for Cl.Nc1nc(-c2cccs2)cc2ccccc12 ?
6.6

GET /values?readout=Activity&item= CCN1CCN(c2nc(-c3cccs3)cc3cc(C)ccc23)CC1
2.63

Recorded Activity for Cc1ccc2cc(-c3cccs3)nc(N3CCNCC3)c2c1 , please?
5.76

I am curious: what Activity value has been reported for Cl.c1csc(-c2cc3ccccc3c(N3CCNCC3)n2)c1 ?
3.57

Tell me the measured Activity of Nc1nc(-c2cccs2)cc2ccccc12 , please.
17.43

Could you tell me which Activity is on file for Cc1ccc2c(N3CCNCC3)nc(-c3cccs3)cc2c1.Cl ?
86.88

Find the recorded Activity belonging to c1csc(-c2cc3ccccc3c(N3CCNCC3)n2)c1 and report it.
1.85

All values here come from ChEMBL document CHEMBL3286131.
